- measurement target: T1, SsoSSB1-114 (Sulfolobus solfataricus, UniProt Q97W73 1-114)
- T1 sequence: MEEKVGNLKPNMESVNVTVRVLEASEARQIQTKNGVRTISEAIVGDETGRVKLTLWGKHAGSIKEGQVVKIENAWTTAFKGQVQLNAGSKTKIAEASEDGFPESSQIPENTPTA
- assay info: ITC; 25 C; n = 1.009; Buffer A: 100 mM NaCl, 20 mM MES pH 6.5; ITC at 25 C (500 uM dA15 into 50 uM protein); NMR with 10% D2O at 25 and 50 C (SsoSSB12-114 at 25 C only)
- condition set: protein: recombinant; tags: C-terminal TEV-His6 vector; single strand
property: pKd
Reminder that pKd means the negative base-10 logarithm of the concentration expressed in mol/L.

Exercise: # query: pKd of entry AAAAAAAAAAAAAAA (ssDNA) [dA(15)]
Solution: 5.76

meta.source: paper PMC8954794
